Some compounds, each annotated with its measured growth inhibition.
Assay: inhibition of 3D7 malaria parasite growth – strain 3D7 (AID 2306);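 note: 0% = DMSO wells and 100% = chloroquine plus artemisinin control wells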
Details: P. falciparum 3D7 erythrocytic growth, LDH absorbance, 72 h; at 2 µM; active compounds read high

- Compound: "CC[C@@]1(O)C(=O)OCc2c1cc1n(c2=O)Cc2c-1nc1cc3c(cc1c2CN1CCOCC1)OCO3"
  growth inhibition (%): 89
- Compound: "Cc1c(C(=O)NC2CCC(CN3CCC(c4c[nH]c5ccccc45)CC3)CC2)cnn1-c1c(Cl)cc(Cl)cc1Cl (centres undefined)"
  growth inhibition (%): 100
- Compound: "Cc1[nH]c2cc(F)ccc2c1C1=CCN(CCCCC2(C)C(=O)Nc3ccccc32)CC1 (centres undefined)"
  growth inhibition (%): 93
- Compound: "CCOC(=O)CCCN1C(=O)CN=C(c2ccccc2)c2cc(Cl)ccc21"
  growth inhibition (%): 97
- Compound: "OC(CNC1CCCCC1)c1ccc(Cl)c(Cl)c1 (centres undefined)"
  growth inhibition (%): 99
- Compound: "OC1(CNCc2ccccc2)CCN(CCc2c[nH]c3ccc(F)cc23)CC1"
  growth inhibition (%): 100
- Compound: "O=C(C=Cc1cc([N+](=O)[O-])ccc1Cl)NC1CCC(CN2CCC(c3c[nH]c4ccccc34)CC2)CC1 (centres undefined)"
  growth inhibition (%): 102
- Compound: "CN(C)c1cccc(CN2CC=C(c3c[nH]c4ccc(Cl)cc34)CC2)c1"
  growth inhibition (%): 93
- Compound: "CCN(CC)CCN1C(=O)C(O)(c2ccccc2Cl)c2c1cc(C#N)cc2C(F)(F)F (centres undefined)"
  growth inhibition (%): 88

Reference source: PubChem BioAssay
